# EXPERIMENTAL PROTOCOL: Tmax in BALB/c mouse at 10 mg/kg, ip measured upto 24 hrs by LC-MS/MS analysis
# Assay type: ADME, organism-based
# MEASUREMENT CONTEXT: in vivo
PROPERTY: Tmax (min)
// note: answer is a bare numeric in min

Prompt: Assign Tmax to the following record: "CC(=O)N[C@H](CC(N)=O)C(=O)N[C@@H](C)C(=O)N[C@@H](CC(C)C)C(=O)N[C@@H](CCC(N)=O)C(=O)N[C@H](C(=O)N[C@H](CC(C)C)C(=O)NCC(=O)N[C@@H](Cc1ccccc1)C(=O)N[C@H](CCC(N)=O)C(=O)N[C@@H](CC(C)C)C(=O)N[C@H](C(N)=O)[C@@H](C)O)[C@@H](C)O"
Completion: 29.4

---

# EXPERIMENTAL PROTOCOL: Apparent permeability of compound across apical to basolateral side in human Caco-2 cells at 10 uM incubated for 2 hrs
# Type: ADME, cell-based
Here the recorded Papp A→B at 2 h, 10 µM is given for each entry.
Please state the figure in ×10⁻⁶ cm/s; there is no need to write the unit.

Prompt: Look up and state reported Papp A→B at 2 h, 10 µM for "CC(=O)N[C@H](CC(C)C)C(=O)N[C@@H](C)C(=O)N[C@@H](CC(C)C)C(=O)N[C@@H](CCC(N)=O)C(=O)N[C@H](C(=O)N[C@H](CC(C)C)C(=O)NCC(=O)N[C@@H](Cc1ccccc1)C(=O)N[C@H](CCC(N)=O)C(=O)N[C@@H](CC(C)C)C(=O)N[C@H](C(N)=O)[C@@H](C)O)[C@@H](C)O"
Completion: 26.8

Prompt: Could you please provide reported Papp A→B at 2 h, 10 µM for "CC(=O)N[C@H](CC(N)=O)C(=O)N[C@@H](C)C(=O)N[C@@H](CC(C)C)C(=O)N[C@@H](CCC(N)=O)C(=O)N[C@H](C(=O)N[C@H](CC(C)C)C(=O)NCC(=O)N[C@@H](Cc1ccccc1)C(=O)N[C@H](CCC(N)=O)C(=O)N[C@@H](CC(C)C)C(=O)N[C@H](C(N)=O)[C@@H](C)O)[C@@H](C)O" ? Thanks!
Completion: 29.8

---

# EXPERIMENTAL PROTOCOL: Half life in BALB/c mouse at 10 mg/kg, po measured upto 24 hrs by LC-MS/MS analysis
# Type: ADME, organism-based
# MEASUREMENT CONTEXT: in vivo
PROPERTY: half-life
Please format your answer as a value with the unit trailing.

Prompt: Read the entry "CC(=O)N[C@H](CC(N)=O)C(=O)N[C@@H](C)C(=O)N[C@@H](CC(C)C)C(=O)N[C@@H](CCC(N)=O)C(=O)N[C@H](C(=O)N[C@H](CC(C)C)C(=O)NCC(=O)N[C@@H](Cc1ccccc1)C(=O)N[C@H](CCC(N)=O)C(=O)N[C@@H](CC(C)C)C(=O)N[C@H](C(N)=O)[C@@H](C)O)[C@@H](C)O" and write its reported half-life.
Completion: 4.87 h

---

# TARGET SYSTEM: CDK9/cyclin T1 (Homo sapiens)
# Sequence (O60563 whole entry): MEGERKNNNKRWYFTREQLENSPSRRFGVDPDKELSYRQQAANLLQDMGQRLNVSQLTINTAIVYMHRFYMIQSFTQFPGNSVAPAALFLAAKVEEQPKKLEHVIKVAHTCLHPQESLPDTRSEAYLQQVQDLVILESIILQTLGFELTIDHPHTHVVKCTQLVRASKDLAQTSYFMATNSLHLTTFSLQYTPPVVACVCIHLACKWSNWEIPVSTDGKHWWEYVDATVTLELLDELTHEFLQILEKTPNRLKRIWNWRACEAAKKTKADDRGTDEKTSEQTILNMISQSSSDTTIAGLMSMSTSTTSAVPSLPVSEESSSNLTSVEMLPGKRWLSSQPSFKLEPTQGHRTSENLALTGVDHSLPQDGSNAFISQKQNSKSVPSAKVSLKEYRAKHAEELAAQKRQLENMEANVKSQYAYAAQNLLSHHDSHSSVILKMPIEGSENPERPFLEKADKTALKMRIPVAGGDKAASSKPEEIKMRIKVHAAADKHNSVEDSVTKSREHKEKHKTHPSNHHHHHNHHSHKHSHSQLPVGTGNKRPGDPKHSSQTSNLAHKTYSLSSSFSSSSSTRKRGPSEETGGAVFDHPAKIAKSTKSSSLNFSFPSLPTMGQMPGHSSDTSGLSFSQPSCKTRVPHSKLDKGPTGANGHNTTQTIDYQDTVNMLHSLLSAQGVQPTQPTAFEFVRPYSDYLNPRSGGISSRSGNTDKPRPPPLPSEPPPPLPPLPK
# Sequence (P50750 whole entry): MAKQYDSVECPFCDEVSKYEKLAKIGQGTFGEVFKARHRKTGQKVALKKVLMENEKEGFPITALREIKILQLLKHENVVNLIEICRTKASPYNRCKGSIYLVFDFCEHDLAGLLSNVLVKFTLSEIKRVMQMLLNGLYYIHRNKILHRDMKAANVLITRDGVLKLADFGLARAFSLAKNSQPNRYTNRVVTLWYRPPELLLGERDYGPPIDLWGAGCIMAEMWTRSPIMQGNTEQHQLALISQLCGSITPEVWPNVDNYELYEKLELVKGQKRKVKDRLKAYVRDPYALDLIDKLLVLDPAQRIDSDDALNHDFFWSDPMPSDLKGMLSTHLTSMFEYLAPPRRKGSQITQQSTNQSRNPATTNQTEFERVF
# EXPERIMENTAL PROTOCOL: Inhibition of CDK9/cyclin T1 (unknown origin) pre-incubated for 20 min followed by 32P-ATP addition and measured after 2 hrs
# Format: protein-complex assay
PROPERTY: IC50

Prompt: Annotate the compound "CC(=O)N[C@H](CC(N)=O)C(=O)N[C@@H](C)C(=O)N[C@H](C(=O)N[C@@H](CCC(N)=O)C(=O)N[C@H](C(=O)N[C@H](CC(C)C)C(=O)NCC(=O)N[C@@H](Cc1ccccc1)C(=O)N[C@H](CCC(N)=O)C(=O)N[C@@H](CC(C)C)C(=O)N[C@H](C(N)=O)[C@@H](C)O)[C@@H](C)O)C(C)C" with its measured IC50.
Completion: 23.9 nM

Prompt: Complete the entry with IC50 for "CC(=O)N[C@@H](CC(N)=O)C(=O)N[C@@H](C)C(=O)N[C@@H](CC(C)C)C(=O)N[C@@H](CCC(N)=O)C(=O)N[C@H](C(=O)N[C@H](CC(C)C)C(=O)NCC(=O)N[C@@H](Cc1ccccc1)C(=O)N[C@H](CCC(N)=O)C(=O)N[C@@H](CC(C)C)C(=O)N[C@H](C(N)=O)[C@@H](C)O)[C@@H](C)O"
Completion: 87.4 nM

Prompt: Supply reported IC50 belonging to this compound: "CC(=O)N[C@H](CC(N)=O)C(=O)N[C@H](CCC(N)=O)C(=O)N[C@@H](CC(C)C)C(=O)NCC(=O)N[C@@H](Cc1ccccc1)C(=O)N[C@H](CC(C)C)C(=O)N[C@@H](CC(C)C)C(=O)N[C@@H](C)C(=O)N[C@H](C(=O)N[C@@H](CCC(N)=O)C(=O)N[C@H](C(N)=O)[C@@H](C)O)[C@@H](C)O"
Completion: > 50 nM

---

# TARGET SYSTEM: CDK9/cyclin T1 (Homo sapiens)
# EXPERIMENTAL PROTOCOL: Inhibition of CDK9/cyclin T1 (unknown origin) pre-incubated for 20 min followed by 32P-ATP addition and measured after 2 hrs
PROPERTY: pIC50
# log scale: pIC50 equals minus log10 of the concentration in mol/L

Answered examples (3):
Prompt: Fill in pIC50 for record "CC(=O)N[C@H](CC(C)C)C(=O)N[C@@H](C)C(=O)N[C@@H](CC(C)C)C(=O)N[C@@H](CCC(N)=O)C(=O)N[C@H](C(=O)N[C@H](CC(C)C)C(=O)NCC(=O)N[C@@H](Cc1ccccc1)C(=O)N[C@H](CCC(N)=O)C(=O)N[C@@H](CC(C)C)C(=O)N[C@H](C(N)=O)C(C)C)[C@@H](C)O"
Completion: 7.76

Prompt: Specify measured pIC50 for "CC(=O)N[C@H](CC(N)=O)C(=O)N[C@@H](C)C(=O)N[C@@H](CC(C)C)C(=O)N[C@@H](CCC(N)=O)C(=O)N[C@H](C(=O)N[C@H](CC(C)C)C(=O)NCC(=O)N[C@@H](Cc1ccccc1)C(=O)N[C@H](CCC(N)=O)C(=O)N[C@@H](CC(C)C)C(=O)N[C@H](C(N)=O)[C@@H](C)O)[C@@H](C)O" .
Completion: 8.38

Prompt: Kindly indicate its recorded pIC50. Item: "CC(=O)N[C@H](CC(N)=O)C(=O)N[C@@H](C)C(=O)N[C@@H](CC(C)C)C(=O)N[C@@H](CCC(N)=O)C(=O)N[C@H](C(=O)N[C@H](CC(C)C)C(=O)NCC(=O)N[C@@H](Cc1ccccc1)C(=O)N[C@H](C)C(=O)N[C@@H](CC(C)C)C(=O)N[C@H](C(N)=O)[C@@H](C)O)[C@@H](C)O"
Completion: 7.43

Turning to the following compound.
Prompt: Look up pIC50 of "CC(=O)N[C@H](CC(C)C)C(=O)N[C@@H](C)C(=O)N[C@@H](CC(C)C)C(=O)N[C@@H](CCC(N)=O)C(=O)N[C@H](C(=O)N[C@H](CC(C)C)C(=O)NCC(=O)N[C@@H](Cc1ccccc1)C(=O)N[C@H](CCC(N)=O)C(=O)N[C@@H](CC(C)C)C(=O)N[C@H](C(N)=O)[C@@H](C)O)[C@@H](C)O" and report it.
Completion: 7.98

---

# EXPERIMENTAL PROTOCOL: Stability in mouse serum at 5 uM measured after 360 mins by HPLC analysis
# Format: ADME, cell-free
# MEASUREMENT CONTEXT: read-out: Stability
PROPERTY: remaining at 6 h, 5 µM (%)
// return numeric value only (unit: %, not printed)

Prompt: Name the recorded remaining at 6 h, 5 µM of the item "CC(=O)N[C@H](CC(N)=O)C(=O)N[C@@H](C)C(=O)N[C@@H](CC(C)C)C(=O)N[C@@H](CCC(N)=O)C(=O)N[C@H](C(=O)N[C@H](CC(C)C)C(=O)NCC(=O)N[C@@H](Cc1ccccc1)C(=O)N[C@H](CCC(N)=O)C(=O)N[C@@H](CC(C)C)C(=O)N[C@H](C(N)=O)[C@@H](C)O)[C@@H](C)O" in your answer.
Completion: 87

---

# EXPERIMENTAL PROTOCOL: Tmax in BALB/c mouse at 10 mg/kg, po measured upto 24 hrs by LC-MS/MS analysis
# Format: ADME, organism-based
# MEASUREMENT CONTEXT: in vivo
PROPERTY: Tmax (min)
Provide the reading as a plain figure in min.

Prompt: Give the reported Tmax for this compound. "CC(=O)N[C@H](CC(N)=O)C(=O)N[C@@H](C)C(=O)N[C@@H](CC(C)C)C(=O)N[C@@H](CCC(N)=O)C(=O)N[C@H](C(=O)N[C@H](CC(C)C)C(=O)NCC(=O)N[C@@H](Cc1ccccc1)C(=O)N[C@H](CCC(N)=O)C(=O)N[C@@H](CC(C)C)C(=O)N[C@H](C(N)=O)[C@@H](C)O)[C@@H](C)O"
Completion: 24.6
